experimental system: T1, CRBN, Q96SW2;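 note: pooled lentiviral library of zinc finger degron-EGFP fusions in mCherry-positive Jurkat cells, FACS-sorted after compound exposure, with degron abundance counted by next-generation sequencing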
T1 chain: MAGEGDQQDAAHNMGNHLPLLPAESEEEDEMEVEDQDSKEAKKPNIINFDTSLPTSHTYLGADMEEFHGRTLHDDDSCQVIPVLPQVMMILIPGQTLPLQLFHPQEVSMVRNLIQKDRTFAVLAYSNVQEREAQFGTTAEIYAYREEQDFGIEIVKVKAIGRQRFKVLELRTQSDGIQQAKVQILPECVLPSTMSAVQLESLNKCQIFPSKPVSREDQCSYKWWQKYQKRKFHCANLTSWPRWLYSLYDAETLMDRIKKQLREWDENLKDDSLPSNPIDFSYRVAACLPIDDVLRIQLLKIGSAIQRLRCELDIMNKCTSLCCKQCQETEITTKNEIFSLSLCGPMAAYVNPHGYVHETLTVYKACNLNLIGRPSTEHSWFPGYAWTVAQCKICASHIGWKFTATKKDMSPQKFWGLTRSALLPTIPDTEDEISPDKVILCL
procedure details: log2 fold change of degron read counts, EGFP-low vs EGFP+ sorted cells (limma voom), compound-induced degradation; higher = more compound-induced degradation of the degron-EGFP fusion; degrons are variants of IKZF1/3 zinc finger 2; compound dose not given here
assay conditions: Jurkat; 18 h; compound: compound 22 (5-morpholino-thalidomide)
The full ranking holds about 8,300 sequences; the median of “log2 fold change of degron read counts, EGFP-low vs EGFP+ sorted cells (limma voom), compound-induced degradation” is about -1.1, and the highest 2% start at about 3.2. The entries come from a sample that favours the highest values as a whole.
Tag: T if measured log2 fold change of degron read counts is not below 3, F if it is.

Worked cases, answers included:
INSERT INTO assay_data (entry_sequence, category) VALUES
  ('LCCPICGFFCTQKGNLLRHIKL [46L_47C_49P_50I_52G_53F_54F_55C_67L_, Q9UKT9]', 'F'),
  ('FFCSVCGHKFTQKGNLLRHIKL [46F_47F_49S_50V_52G_53H_54K_55F_67L_, Q9UKT9]', 'F'),
  ('FECEVCGAQFTQKGNLLRHIKL [46F_47E_49E_50V_52G_53A_54Q_55F_67L_, Q9UKT9]', 'F'),
  ('FVCEVCGANFTQKGNLLRHIKL [46F_47V_49E_50V_52G_53A_54N_55F_67L_, Q9UKT9]', 'F'),
  ('FTCEVCGANFTQKGNLLRHIKL [46F_47T_49E_50V_52G_53A_54N_55F_67L_, Q9UKT9]', 'F'),
  ('FFCEVCGANFTQKGNLLRHIKL [46F_47F_49E_50V_52G_53A_54N_55F_67L_, Q9UKT9]', 'T'),
  ('FICNICGADFTQKGNLLRHIKL [46F_47I_49N_50I_52G_53A_54D_55F_67L_, Q9UKT9]', 'F'),
  ('FLCEVCGANFTQKGNLLRHIKL [46F_47L_49E_50V_52G_53A_54N_55F_67L_, Q9UKT9]', 'F');

Does the reported log2 fold change of degron read counts for FSCPICGAHFTQKGNLLRHIKL [46F_47S_49P_50I_52G_53A_54H_55F_67L_, Q9UKT9] fall at or above the 3 mark?
F

Does the reported log2 fold change of degron read counts for FWCPICGRPFTQKGNLLRHIKL [46F_47W_49P_50I_52G_53R_54P_55F_67L_, Q9UKT9] fall at or above the 3 mark?
F

Does the reported log2 fold change of degron read counts for LGCPICGFFCTQKGNLLRHIKL [46L_47G_49P_50I_52G_53F_54F_55C_67L_, Q9UKT9] fall at or above the 3 mark?
F

Does the reported log2 fold change of degron read counts for FCCPICGAHFTQKGNLLRHIKL [46F_47C_49P_50I_52G_53A_54H_55F_67L_, Q9UKT9] fall at or above the 3 mark?
F

Does the reported log2 fold change of degron read counts for FMCEICGHVFTQKGNLLRHIKL [46F_47M_49E_50I_52G_53H_54V_55F_67L_, Q9UKT9] fall at or above the 3 mark?
F

Does the reported log2 fold change of degron read counts for FGCPICGAHFTQKGNLLRHIKL [46F_47G_49P_50I_52G_53A_54H_55F_67L_, Q9UKT9] fall at or above the 3 mark?
F

Does the reported log2 fold change of degron read counts for FKCPICGRFFTQKGNLLRHIKL [46F_47K_49P_50I_52G_53R_54F_55F_67L_, Q9UKT9] fall at or above the 3 mark?
F

Does the reported log2 fold change of degron read counts for FQCEVCGAQFTQKGNLLRHIKL [46F_47Q_49E_50V_52G_53A_54Q_55F_67L_, Q9UKT9] fall at or above the 3 mark?
F

Does the reported log2 fold change of degron read counts for FWCPICGAHFTQKGNLLRHIKL [46F_47W_49P_50I_52G_53A_54H_55F_67L_, Q9UKT9] fall at or above the 3 mark?
T

Does the reported log2 fold change of degron read counts for FYCPICGAHFTQKGNLLRHIKL [46F_47Y_49P_50I_52G_53A_54H_55F_67L_, Q9UKT9] fall at or above the 3 mark?
T

Does the reported log2 fold change of degron read counts for FWCEVCGANFTQKGNLLRHIKL [46F_47W_49E_50V_52G_53A_54N_55F_67L_, Q9UKT9] fall at or above the 3 mark?
T

Does the reported log2 fold change of degron read counts for FQCPICGAHFTQKGNLLRHIKL [46F_47Q_49P_50I_52G_53A_54H_55F_67L_, Q9UKT9] fall at or above the 3 mark?
F

Does the reported log2 fold change of degron read counts for FDCEVCGAQFTQKGNLLRHIKL [46F_47D_49E_50V_52G_53A_54Q_55F_67L_, Q9UKT9] fall at or above the 3 mark?
F

Does the reported log2 fold change of degron read counts for LHCPICGFFCTQKGNLLRHIKL [46L_47H_49P_50I_52G_53F_54F_55C_67L_, Q9UKT9] fall at or above the 3 mark?
F

Does the reported log2 fold change of degron read counts for FYCEVCGAQFTQKGNLLRHIKL [46F_47Y_49E_50V_52G_53A_54Q_55F_67L_, Q9UKT9] fall at or above the 3 mark?
T

Does the reported log2 fold change of degron read counts for FFCPICGAHFTQKGNLLRHIKL [46F_47F_49P_50I_52G_53A_54H_55F_67L_, Q9UKT9] fall at or above the 3 mark?
F

Does the reported log2 fold change of degron read counts for FYCEICGAMFTQKGNLLRHIKL [46F_47Y_49E_50I_52G_53A_54M_55F_67L_, Q9UKT9] fall at or above the 3 mark?
T

Does the reported log2 fold change of degron read counts for FTCEICGAMFTQKGNLLRHIKL [46F_47T_49E_50I_52G_53A_54M_55F_67L_, Q9UKT9] fall at or above the 3 mark?
F

Does the reported log2 fold change of degron read counts for FDCNQCGANFTQKGNLLRHIKL [46F_47D_49N_50Q_52G_53A_54N_55F_67L_, Q9UKT9] fall at or above the 3 mark?
F

Does the reported log2 fold change of degron read counts for FACPVCGAVFTQKGNLLRHIKL [46F_47A_49P_50V_52G_53A_54V_55F_67L_, Q9UKT9] fall at or above the 3 mark?
F
